- system_tested: heat resistant maltose phosphorylase (Bacillus sp. RK-1)
- experimental_protocol: Substrate specificity of heat resistant maltose phosphorylase (phosphorolysis reaction, glucose formed)
- Format: biochemical
- Design: concentration or dose not given beside the values
- measurement_context: each substance as substrate of phosphorolysis by heat resistant maltose phosphorylase; maltose = 100
quantity_name: Relative activity (%)
Numbers only, in %.

Solved entries:
{"columns": ["compound", "measured"],
 "data": [
  ["O=[N+]([O-])c1ccc(O[C@H]2O[C@H](CO)[C@@H](O)[C@H](O)[C@H]2O)cc1 [D - glucosideyl - α, p-nitrophenyl-α-D-glucoside]", 0],
  ["OC[C@H]1O[C@@H](O[C@H]2O[C@H](CO)[C@@H](O)[C@H](O)[C@H]2O)[C@H](O)[C@@H](O)[C@@H]1O", 0]
]}

Could you now look at the following compound, please?
Prompt: Give Relative activity (%) (heat resistant maltose phosphorylase (Bacillus sp. RK-1)) of the following compound: "OC[C@H]1O[C@H](O[C@H]2[C@H](O)[C@@H](O)[C@H](O)O[C@@H]2CO)[C@H](O)[C@@H](O)[C@@H]1O"
Completion: 100

###

- system_tested: heat resistant maltose phosphorylase (Bacillus sp. RK-1, UniProt Q84IX5)
- Sequence (Q84IX5 entry or part of it, change not shown): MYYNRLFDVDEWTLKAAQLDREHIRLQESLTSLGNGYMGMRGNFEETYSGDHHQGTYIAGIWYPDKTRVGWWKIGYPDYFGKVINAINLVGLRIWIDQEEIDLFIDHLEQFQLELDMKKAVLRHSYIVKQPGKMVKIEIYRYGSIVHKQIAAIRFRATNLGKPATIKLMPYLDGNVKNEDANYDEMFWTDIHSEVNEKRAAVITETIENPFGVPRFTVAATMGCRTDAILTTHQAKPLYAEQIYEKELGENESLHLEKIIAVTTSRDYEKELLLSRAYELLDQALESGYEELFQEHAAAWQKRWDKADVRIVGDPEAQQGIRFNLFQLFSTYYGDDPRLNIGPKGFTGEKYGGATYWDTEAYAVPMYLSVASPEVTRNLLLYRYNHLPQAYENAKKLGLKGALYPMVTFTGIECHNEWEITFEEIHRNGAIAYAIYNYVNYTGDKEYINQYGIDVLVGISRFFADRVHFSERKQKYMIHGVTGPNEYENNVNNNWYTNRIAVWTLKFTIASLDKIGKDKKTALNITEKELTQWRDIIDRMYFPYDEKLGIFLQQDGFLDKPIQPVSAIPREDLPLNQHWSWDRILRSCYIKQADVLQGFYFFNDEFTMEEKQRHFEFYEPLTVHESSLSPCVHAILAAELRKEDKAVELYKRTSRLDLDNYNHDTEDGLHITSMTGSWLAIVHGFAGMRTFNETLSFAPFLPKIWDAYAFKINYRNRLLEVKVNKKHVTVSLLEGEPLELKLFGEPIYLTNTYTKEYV
- experimental_protocol: Substrate specificity of heat resistant maltose phosphorylase (phosphorolysis reaction, glucose formed)
- Format: biochemical
- Set-up: concentration or dose not given beside the values
- measurement_context: each substance as substrate of phosphorolysis by heat resistant maltose phosphorylase; maltose = 100
Assignment: determine reported Relative activity (%) for the given compounds.
Give bare numbers, in %.

{"columns": ["compound", "system_tested", "endpoint_unit", "Relative activity (%)"],
 "data": [
  ["OC[C@H]1O[C@@H](OC[C@H]2OC(O)[C@H](O)[C@@H](O)[C@@H]2O)[C@H](O)[C@@H](O)[C@@H]1O (stereo partly shown) [Gentiobiose]", "heat resistant maltose phosphorylase (Bacillus sp. RK-1, UniProt Q84IX5)", "%", 2],
  ["O=[N+]([O-])c1ccc(O[C@@H]2O[C@H](CO)[C@@H](O)[C@H](O)[C@H]2O)cc1 [D - glucosideyl - β, p-nitrophenyl-β-D-glucoside]", "heat resistant maltose phosphorylase (Bacillus sp. RK-1, UniProt Q84IX5)", "%", 0],
  ["OC[C@H]1O[C@@H](O[C@H]2[C@H](O)[C@@H](O)C(O)O[C@@H]2CO)[C@H](O)[C@@H](O)[C@H]1O (stereo partly shown) [Lactose]", "heat resistant maltose phosphorylase (Bacillus sp. RK-1, UniProt Q84IX5)", "%", 0],
  ["OC[C@H]1O[C@@H](O[C@H]2[C@H](O)[C@@H](O)C(O)O[C@@H]2CO)[C@H](O)[C@@H](O)[C@@H]1O (stereo partly shown) [Cellobiose]", "heat resistant maltose phosphorylase (Bacillus sp. RK-1, UniProt Q84IX5)", "%", 0],
  ["OC[C@H]1O[C@H](O[C@H]2O[C@H](CO)[C@@H](O)[C@H](O)[C@H]2O)[C@H](O)[C@@H](O)[C@@H]1O [Trehalose]", "heat resistant maltose phosphorylase (Bacillus sp. RK-1, UniProt Q84IX5)", "%", 0],
  ["OC[C@H]1O[C@@](CO)(O[C@H]2O[C@H](CO)[C@@H](O)[C@H](O)[C@H]2O)[C@@H](O)[C@@H]1O [Sucrose]", "heat resistant maltose phosphorylase (Bacillus sp. RK-1, UniProt Q84IX5)", "%", 0]
]}

Now, please, on to the next compound.
Prompt: Form field: reported Relative activity (%) of OC[C@H]1O[C@H](OC[C@H]2OC(O)[C@H](O)[C@@H](O)[C@@H]2O)[C@H](O)[C@@H](O)[C@@H]1O (stereo partly shown) [Isomaltose]
Completion: 2
